# Tested on: U251 CNS
Please reply with one of these outcomes: active, inactive

Prompt line: // param item: "O=C1c2cccc3cccc(c23)C(=O)N1CCCCN1CCN(CCCCOc2ccc(-c3nc4ccc(N5CCOCC5)cc4[nH]3)cc2)CC1" ; yields the recorded call
Response line: inactive

---

# System: OVCAR-5 ovarian
# experimental protocol: NCI tumour cell line growth inhibition, 48 h
metric name: GI50

> print(dat)
                                   compound  result.value
1  CC1CC(C)/C(=N/NC(N)=O)C(C(O)CC2CCC(=O)NC2=O)C1 (stereo unspecified)       3.73 µM
2  O=C(Nc1cccc([N+](=O)[O-])c1)c1ccc2ccccc2c1O       20.6 µM

Lab book: GI50 of "CC(C)=CCc1ccc(O)c(=O)cc1C(C)C" noted as 3.39 µM

Lab book: GI50 of "CCSc1nc(N2CCCCC2)c2cn[nH]c2n1" noted as 88.7 µM

Lab book: GI50 of "Cc1ccc(/C=C/C(=O)c2ccc(N)cc2)c(C)c1" noted as 7.32 µM

Values compiled from PubChem BioAssay (NCI).
